These entries and their values trace back to PubChem BioAssay (NCI).

Measured growth inhibition of individual entries
Experiment: NCI Yeast Anticancer Drug Screen. Data for the bub3 strain (AID 167)
Settings: S. cerevisiae bub3 mutant strain, at 50.0 µM, hits give high values
Compounds without any hit were thinned out: in the full panel of roughly 79,000, 15% have a hit.
Measure name: growth inhibition (%)

Compound	Measure name	Assay value
NC(CSSCC(N)=NCC12CC3CC(CC(C3)C1)C2)=NCC12CC3CC(CC(C3)C1)C2	growth inhibition	98.8
CCC(C)NC(=O)C1C2CCC(C2)C1C(=O)NC(C)CC (configuration not stated)	growth inhibition	-7.5
O=C(O)CNC(=O)NC(Cc1ccccc1)C(=O)O (configuration not stated)	growth inhibition	18.6
COC(=O)c1nc(N)nc(C(=O)OC)c1C(=O)c1ccc(Cl)c(Cl)c1	growth inhibition	3.2
Cc1ccc(NC(=O)NCCCN2CCOCC2)cc1NC(=O)NCCCN1CCOCC1	growth inhibition	8.3
O=C1Cc2c([nH]c3c(Cl)cccc23)-c2ccccc2N1	growth inhibition	4.5
Nc1ccc(C(=O)NN2C(=O)C(Cl)C2c2cc(Br)ccc2O)cc1 (configuration not stated)	growth inhibition	29.1
O=c1[nH]c(=O)n(COCCO)cc1-c1ccccc1	growth inhibition	-1.25
CCOC(=O)C(=O)Nc1ccccc1C(C)C	growth inhibition	-9
COc1ccc(C2SCC(=O)N2NC(=O)c2ccc(NC(C)=O)cc2)cc1 (configuration not stated)	growth inhibition	-21.7
CCC(C)NS(=O)(=O)c1ccc(Cl)cc1 (configuration not stated)	growth inhibition	5.85
CC(=O)NC(CSCC(=O)c1ccccc1)C(=O)O (configuration not stated)	growth inhibition	-18.8
